Experiment: in vitro
Details: human, Caco-2, CACO permeability PEAB
*1 amine or outer side, *2 acyl side, *3 side chain or, on linkers, in order; H or OH if unused. Where a SMILES comes first, the peptide text is derived from it. [ ]: non-standard residue; d: D form. X2 = C#CCn1cc(C[C@@H](C(=O)[*:2])N(C)[*:1])c2ccccc21; NMeTrp(1-Me) = CN[C@@H](Cc1cn(C)c2ccccc12)C(=O)O; X1 = C#CCn1cc(C[C@H](N[*:1])C(=O)[*:2])c2ccccc21; NMeLeu(5-OH,4R) = CN[C@@H](C[C@@H](C)CO)C(=O)O; Phe(βR-OMe) = CO[C@H](c1ccccc1)[C@H](N)C(=O)O; NMeL = CN[C@@H](CC(C)C)C(=O)O
measure: Papp A→B

1. C#CCn1cc(C[C@H]2C(=O)N(C)[C@@H](C[C@@H](C)CO)C(=O)N[C@@H](C)C(=O)N[C@@H]([C@H](OC)c3ccccc3)C(=O)N[C@@H](C(C)C)C(=O)N(C)[C@@H](CC(C)C)C(=O)N[C@@H](C(C)C)C(=O)N2C)c2ccccc21 [Compound 26] (cyclo(A[Phe(βR-OMe)]V[NMeL]V[X2][NMeLeu(5-OH,4R)]))    25 ×10⁻⁶ cm/s
2. CCCCCn1cc(C[C@@H]2NC(=O)[C@H](CC(C)C)N(C)C(=O)[C@H](C(C)C)NC(=O)[C@H]([C@H](OC)c3ccccc3)NC(=O)[C@H](C)NC(=O)[C@H](C[C@@H](C)CO)N(C)C(=O)[C@H](Cc3cn(C)c4ccccc34)N(C)C2=O)nn1 [Compound 25]    0.87 ×10⁻⁶ cm/s
3. C#CCn1cc(C[C@@H]2NC(=O)[C@H](C(C)C)NC(=O)[C@H](CC(C)C)N(C)C(=O)[C@H](C(C)C)NC(=O)[C@H]([C@H](OC)c3ccccc3)NC(=O)[C@H](C)NC(=O)[C@H](C[C@@H](C)CO)N(C)C2=O)c2ccccc21 [Compound 5] (cyclo(A[Phe(βR-OMe)]V[NMeL]V[X1][NMeLeu(5-OH,4R)]))    0.95 ×10⁻⁶ cm/s
4. CO[C@H](c1ccccc1)[C@@H]1NC(=O)[C@H](C)NC(=O)[C@H](C[C@@H](C)CO)N(C)C(=O)[C@H](Cc2cn(C)c3ccccc23)N(C)C(=O)[C@H](CCC(=O)N(C)C)NC(=O)[C@H](CC(C)C)N(C)C(=O)[C@H](C(C)C)NC1=O [SI-76] (cyclo(A[Phe(βR-OMe)]V[NMeL]E(NMe2)[NMeTrp(1-Me)][NMeLeu(5-OH,4R)]))    < 0.11 ×10⁻⁶ cm/s
5. CO[C@H](c1ccccc1)[C@@H]1NC(=O)[C@H](C)NC(=O)[C@H](C[C@@H](C)CO)N(C)C(=O)[C@H](Cc2cn(Cc3cn(CCCCCn4cc(Cn5cc(C[C@@H]6NC(=O)[C@H](C(C)C)NC(=O)[C@H](CC(C)C)N(C)C(=O)[C@H](C(C)C)NC(=O)[C@H]([C@H](OC)c7ccccc7)NC(=O)[C@H](C)NC(=O)[C@H](C[C@@H](C)CO)N(C)C6=O)c6ccccc65)nn4)nn3)c3ccccc23)NC(=O)[C@H](C(C)C)NC(=O)[C@H](CC(C)C)N(C)C(=O)[C@H](C(C)C)NC1=O [Compound 9]    < 1.2 ×10⁻⁶ cm/s

====

System: M. tuberculosis H37Rv (ATCC 27294)
Experiment: microbe, parasite or virus in culture
Format: cell-based
Conditions: Mycobacterium tuberculosis, M. tuberculosis H37Rv strain; read-out: MIC Mtb H37Rv Mean ± SD
Where a SMILES comes first, the peptide text is derived from it. [ ]: non-standard residue; d: D form. NMeTrp(1-Me) = CN[C@@H](Cc1cn(C)c2ccccc12)C(=O)O; NMeLeu(5-OH,4R) = CN[C@@H](C[C@@H](C)CO)C(=O)O; Phe(βR-OMe) = CO[C@H](c1ccccc1)[C@H](N)C(=O)O; Trp(1-Me) = Cn1cc(C[C@H](N)C(=O)O)c2ccccc21; NMeL = CN[C@@H](CC(C)C)C(=O)O; Pra = C#CC[C@H](N)C(=O)O
Listed below: MIC values for each entry.
measure: MIC (µM)

1) C#CC[C@@H]1NC(=O)[C@H](CC(C)C)N(C)C(=O)[C@H](C(C)C)NC(=O)[C@H]([C@H](OC)c2ccccc2)NC(=O)[C@H](C)NC(=O)[C@H](C[C@@H](C)CO)N(C)C(=O)[C@H](Cc2cn(C)c3ccccc23)NC1=O [Compound 10] (cyclo(A[Phe(βR-OMe)]V[NMeL][Pra][Trp(1-Me)][NMeLeu(5-OH,4R)]))    3.1
2) C#CC[C@@H]1NC(=O)[C@H](CC(C)C)N(C)C(=O)[C@H](C(C)C)NC(=O)[C@H]([C@H](OC)c2ccccc2)NC(=O)[C@H](C)NC(=O)[C@H](C[C@@H](C)CO)N(C)C(=O)[C@H](Cc2cn(C)c3ccccc23)N(C)C1=O [Compound 20] (cyclo(A[Phe(βR-OMe)]V[NMeL][Pra][NMeTrp(1-Me)][NMeLeu(5-OH,4R)]))    50
3) COC(c1ccccc1)C1NC(=O)C(C)NC(=O)C(CC(C)CO)N(C)C(=O)C(Cc2cn(Cc3cn(CCOCCOCCOCCOCCn4cc(Cn5cc(CC6NC(=O)C(C(C)C)NC(=O)C(CC(C)C)N(C)C(=O)C(C(C)C)NC(=O)C(C(OC)c7ccccc7)NC(=O)C(C)NC(=O)C(CC(C)CO)N(C)C6=O)c6ccccc65)nn4)nn3)c3ccccc23)NC(=O)C(C(C)C)NC(=O)C(CC(C)C)N(C)C(=O)C(C(C)C)NC1=O (centres unmarked) [Compound 8]    0.4
4) CO[C@H](c1ccccc1)[C@@H]1NC(=O)[C@H](C)NC(=O)[C@H](C[C@@H](C)CO)N(C)C(=O)[C@H](Cc2cn(C)c3ccccc23)N(C)C(=O)[C@H](Cc2cn(CCCCCn3cc(C[C@@H]4NC(=O)[C@H](CC(C)C)N(C)C(=O)[C@H](C(C)C)NC(=O)[C@H]([C@H](OC)c5ccccc5)NC(=O)[C@H](C)NC(=O)[C@H](C[C@@H](C)CO)N(C)C(=O)[C@H](Cc5cn(C)c6ccccc56)N(C)C4=O)nn3)nn2)NC(=O)[C@H](CC(C)C)N(C)C(=O)[C@H](C(C)C)NC1=O [Compound 22]    3.1

====

Assay: in vitro
Details: human, Caco-2, Caco-2 permeability P (A-B)
Where a SMILES comes first, the peptide text is derived from it. [ ]: non-standard residue; d: D form. NMeTrp(1-Me) = CN[C@@H](Cc1cn(C)c2ccccc12)C(=O)O; NMeLeu(5-OH,4R) = CN[C@@H](C[C@@H](C)CO)C(=O)O; Phe(βR-OMe) = CO[C@H](c1ccccc1)[C@H](N)C(=O)O; NMeL = CN[C@@H](CC(C)C)C(=O)O; Pra = C#CC[C@H](N)C(=O)O
measure: Papp A→B (×10⁻⁶ cm/s)

1. C#CC[C@@H]1NC(=O)[C@H](CC(C)C)N(C)C(=O)[C@H](C(C)C)NC(=O)[C@H]([C@H](OC)c2ccccc2)NC(=O)[C@H](C)NC(=O)[C@H](C[C@@H](C)CO)N(C)C(=O)[C@H](Cc2cn(C)c3ccccc23)N(C)C1=O [Compound 20] (cyclo(A[Phe(βR-OMe)]V[NMeL][Pra][NMeTrp(1-Me)][NMeLeu(5-OH,4R)]))    2.8

====

Biological target: ClpC1 NTD protein (M. tuberculosis) (Mycobacterium tuberculosis)
Sequence (P9WPC9 1-156, looked up, natural form): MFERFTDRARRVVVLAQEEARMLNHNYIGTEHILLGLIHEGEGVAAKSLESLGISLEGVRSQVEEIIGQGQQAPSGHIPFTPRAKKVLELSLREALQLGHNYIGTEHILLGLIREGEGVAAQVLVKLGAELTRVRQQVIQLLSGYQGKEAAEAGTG
Experiment: biochemical
Assay type: binding
Conditions: SPR; read-out: ClpC1-NTD KD Mean ± SD
pKd: −log10 of the molar value. *1 amine or outer side, *2 acyl side, *3 side chain or, on linkers, in order; H or OH if unused. Where a SMILES comes first, the peptide text is derived from it. [ ]: non-standard residue; d: D form. NMeTrp(1-Me) = CN[C@@H](Cc1cn(C)c2ccccc12)C(=O)O; X1 = C#CCn1cc(C[C@H](N[*:1])C(=O)[*:2])c2ccccc21; NMeLeu(5-OH,4R) = CN[C@@H](C[C@@H](C)CO)C(=O)O; Phe(βR-OMe) = CO[C@H](c1ccccc1)[C@H](N)C(=O)O; NMeL = CN[C@@H](CC(C)C)C(=O)O; Pra = C#CC[C@H](N)C(=O)O
measure: pKd

1. CO[C@H](c1ccccc1)[C@@H]1NC(=O)[C@H](C)NC(=O)[C@H](C[C@@H](C)CO)N(C)C(=O)[C@H](Cc2cn(C)c3ccccc23)N(C)C(=O)[C@H](Cc2cn(CCCCCn3cc(C[C@@H]4NC(=O)[C@H](CC(C)C)N(C)C(=O)[C@H](C(C)C)NC(=O)[C@H]([C@H](OC)c5ccccc5)NC(=O)[C@H](C)NC(=O)[C@H](C[C@@H](C)CO)N(C)C(=O)[C@H](Cc5cn(C)c6ccccc56)N(C)C4=O)nn3)nn2)NC(=O)[C@H](CC(C)C)N(C)C(=O)[C@H](C(C)C)NC1=O [Compound 22]    9.05
2. C#CC[C@@H]1NC(=O)[C@H](CC(C)C)N(C)C(=O)[C@H](C(C)C)NC(=O)[C@H]([C@H](OC)c2ccccc2)NC(=O)[C@H](C)NC(=O)[C@H](C[C@@H](C)CO)N(C)C(=O)[C@H](Cc2cn(C)c3ccccc23)N(C)C1=O [Compound 20] (cyclo(A[Phe(βR-OMe)]V[NMeL][Pra][NMeTrp(1-Me)][NMeLeu(5-OH,4R)]))    7.86
3. C#CCn1cc(C[C@@H]2NC(=O)[C@H](C(C)C)NC(=O)[C@H](CC(C)C)N(C)C(=O)[C@H](C(C)C)NC(=O)[C@H]([C@H](OC)c3ccccc3)NC(=O)[C@H](C)NC(=O)[C@H](C[C@@H](C)CO)N(C)C2=O)c2ccccc21 [Compound 5] (cyclo(A[Phe(βR-OMe)]V[NMeL]V[X1][NMeLeu(5-OH,4R)]))    8.46
